ASSAY_NOTES: yeast display, Sf9 membrane polyspecificity reagent, FACS + sequencing; frameworks hold sequencing errors
PROPERTY_NAME: polyreactivity (PSR sort gate)

Please review the following examples before continuing.
QVQLVESGGGLVQAGGSLRLSCAASGRIFPWYAMGWYRQAPGRVREFLAVISRSGGSTYYADSVKGRFTISRDNAKNTVYLQMNSLKPEDTAVYYCAADGKFEYDYWGQGTQVTVSS
low polyreactivity
QVQLVESGGGLVQAGGSLRLSCAASGIIIPYYAMGWYRQAPGKERELVAAISSGGSTNYADSVKGRFTISRDNAKNTVYLQMNSLKPEDTAVYYCAAKYTSYASWPIWVVDQFDYWGQGTQVTVSS
low polyreactivity
QVQLVESGGGLVQAGGSLRLSCAASGSTFRVYAMGWYRQAPGKERELVAAISWSGGRTYYADSVKGRFTISGDNAKNTVYLQMNSLKTEDTAVYYCAADTYGRYDYWGQGTQVTVSS
high polyreactivity
QVQHVHSGGGLVQAGGSLRLTCAASGSTFVGNAMVRYRQATGKERELVATISNSGGRTYYADSVKGRFTISRDNPKNTVYLQMNSLKAEDTAVYFCAADHPAFVPVYSFDYWGQGTQVNVSS
low polyreactivity

Here is the next item to consider.
Requested read-out: polyreactivity (PSR sort gate). Entry: QVQLVESGGGLVQAGGSLRLSCAASGFTFRYYAMGWYRQAPGKERELVAAISSRGGTTYYADSVKGRFTISRDNAKNTVYLQMNSLKPEDTAVYYCAAVRPPSYYYWGQGTQVTVSS
high polyreactivity

====

ASSAY_NOTES: yeast display, Sf9 membrane polyspecificity reagent, FACS + sequencing; frameworks hold sequencing errors
PROPERTY_NAME: polyreactivity (PSR sort gate)

QVQLVESGGGLVQAGGSLRLSCAASGRIFYQYAMGWYRQAPGKEREFVAAISISGTSTYADSVKGRFTISRDNAKNTVYLQMNSLIPEDTAFYYCNVGPRAGWYRSNYDYWGQGTQVTVSS
low polyreactivity
QVQLVESGGGLVQAGGSLRLSCAASGSIFGFNAMGWYRQAPGKERELVAAINNGGSTNYADSVKGRFTISRDNAKNTVYLQMNSLKPEDTAVYYCAARLNYIRRGYWGQGTQVTVSS
high polyreactivity
QVQLVESAGGLVQAGVSLRLSCAASGRTFVGNAMGGYRQAPGKERELVADITWSGDITYYADSVKGRFTIARDTAKNTVYLQMISLKPEDTAVYYCAADYHRRLTDYDYWGQGTQVTVSS
low polyreactivity
QVQLVESGGGLVQAGGSLRLSCAASGSTFWVNARGWYRQAPGKERELVAAIRRGGSTKYADSVKGRFTISRDNAKTTVYLQMNSLKPEDTAVYYCAADSYRTPAIYDYWGQGTQVTVSS
high polyreactivity
QVQLVESGGGLVQAGGSLRLSCAASGSIFYLNAMGWYRQAPGKERELVATISNGGSTNYADSVKGRFTISRDNAKNTVYLQMNSLKPEDTAVYYCAAASGGTVVGEGDYWGQGTQVTVSS
low polyreactivity
QVQLVESGGGLVQAGGRLRLSCAASGSIVGLYVMGWYRQAPGKERELVATITSGGSTYYADSVKGRFTISRDNAKNTDYLQMNSLKPEDTAVYYSAADPQDAADLPDLFYDYDYWGQGTQVTVSS
low polyreactivity
QVQLVESGGGLVQAGGSLRLSCAAPGSTFQFNVMGWYRQAPGKERELVAAITSGASTYYADSVKGRFTISRDNAKNTVYLQMYSLEPEDTAVYYCAVDYSFLYDYVQRYYYWGQGTQVTVSS
high polyreactivity
QVQLVESGGGLVQAGGSLRLSCAASGSIFRKNAMGWYRQAPGKERELVAAISSGGGGTYYADSVKGRFTISRDNAKNTVYLQMNSLKPEDTAVYYCNKREGKGGNTKYDYWGLGTQVTVSS
low polyreactivity
QVQLVESGGGLVQAGGSLRLRCAASGYTLGPYAMGWYRPAPGKQRELVAAISWGGGRTYYADSVKGRFTISRDNAKNTVYLLMNSLKPEDTAVYYCAAKWSLVRDGPKYDYWGQGTQVTVSS
low polyreactivity
QVQLVESGGGLVKAGGSLRLSCAASGRIFGYYAMGLDRQAPGQERELFAAITWSGGRTYYADSVKGRFTISRDNAKNTVYLQMKSLKPEDTAVYYCAAKTLGQQRKFDYWGQGTQVTVSS
high polyreactivity

Consider the sequence QVQLVESGGGLVQAGGSLRLSCAASGLIFRRYAMGWYIQAPGKEREFVAAIRYTGGGTYYADSVKGRFTISRDNAKNTVYLQMNRLKPEDTAVYYCNTVEYRWGYISKVPKYDYWGQGTQVTLSS and give its measured polyreactivity (PSR sort gate).
high polyreactivity

====

ASSAY_NOTES: yeast display, Sf9 membrane polyspecificity reagent, FACS + sequencing; frameworks hold sequencing errors
PROPERTY_NAME: polyreactivity (PSR sort gate)

Worked examples follow.
QVQLVESGGGLVQAGGSLRLSCAASGSIFKNNAMGWYRQAPGKERELVAAIRSSGGSTYYADSVKGRFTISRDNAKHTVYLQMKSLKPEDTAVYYCAARYRSYPTYYQYNYWGQGTQVTVSS
high polyreactivity
QVQLVESGGGLVQAGGSLRLSCAASGSIFRSNTMGWSRQAPGKERELVARISSTGGSTYYADSVKGRFTISRDNAKKTVYLQLNSLKPEDTAVYYCNKVRGINHLYDMNYWGQGTQVTVSS
high polyreactivity
QVQLVESGGGLVQAGGSLRLSCAASGSTFVWNAMGGYRQAPGKERELVAAITNDGRTNYADSVKGRFTISRDNAKNTVYLQMNSRKPEDTAVYYCNADGYNSYWWNYYWGQGTQVTVSS
low polyreactivity
QVQLLESVGGLVQAGGSLRLSSMASGSILGDRMSWYRHAPGKEHELVATIYDGGITYYADSMKGRFTISRDNAKNTVYLQMNSLRPEDSAVYYCGASFEGYRYHVYCGQGTQVTVSS
low polyreactivity
QVQLVESGGGLVQAGGSLRLSCAASGRIFSYYAMGWSRQAPGNERELVAAITWSGGRTYYADSVKGRFTISRDNAKNTVYLQMNSLNPEDTAVYYCAADYYYGSLWDNKLGYWGQGTQVTVSS
high polyreactivity

Could you share which polyreactivity (PSR sort gate) value was measured for QVQIVESGGGLVQAGGSLRLTCAASGRTFYGNAMGWYRQAPGKERDLVADISSRSSSTSYADSVKGRFTISRDNAKYSVYFQMNSLKPEDTAVYYCATRYGYRTWYGYNYWGQGTQVTVSS ?
high polyreactivity

Consider the sequence shown here: QVQLVESGVGLVQAGGSLRLSCAASGRIFYRNAMGWYRQAPGKERELVAAISYSGGRTYYADSVKGRFTISRDNAKNTVYLQMNSLKPEDTAVYYCAARYAWGYVDPGDYWGQGTQVTVSS What is its recorded polyreactivity (PSR sort gate)?
high polyreactivity

Consider the sequence QVQLVESGGGLVQAGGSLRLSCAASGFIFPRYAMGWYRQAPGKERELVAAISYSGGSTYYADSVKGRFTISRDNAKNTVYLQMNSLKPEDTAVYYCAARLFKDSWMDYWGQGTQVTVSS and give its measured polyreactivity (PSR sort gate).
high polyreactivity

What measured polyreactivity (PSR sort gate) goes with QVQLVESGGRLVQAGGSLRLSFAACGSILRDNSMGWYRQAPGKEREFVADIRGSYDSTYYADSVKGRFTISRDNAKHTVYLQMNSRKREDTAVYYCNRVDAWQDYDYWGLGTQVTVSS ?
low polyreactivity

Using the record for QVQLVESGGGLVQAGGSLRLICAASGNIFSYNAMGWYRQAPGKERELVAAISRRGGSTFYADSVKGRFTISRDKAKNTVYLQMNSLKPEDTAVYYCAASRNRYSYGYWGQGTQVTVSS , report its polyreactivity (PSR sort gate).
high polyreactivity

Reported polyreactivity (PSR sort gate) for QVQLVESVGGLVQAGGSLRLSCAASGLNFSYYAMGWYRQAPGKERELVAAIDWISGSTYYADSVKGRFTISRDNAKNTVYLQMNSLKPEDTAVYYCAAYGSFWYAGFGYWGQGTQVTVSS : what is it?
low polyreactivity

====

ASSAY_NOTES: yeast display, Sf9 membrane polyspecificity reagent, FACS + sequencing; frameworks hold sequencing errors
PROPERTY_NAME: polyreactivity (PSR sort gate)

QVQLVESGGGLVQAGGSLRVSCAASGRTFRSYAMGWYRQAPGKERELVAAIRRGGSTNYADSVKGRFPISRDNAKYTVYLQMNSLKPEDTAVYYCAARYTRWRYNYKDYDYWGQGTQVTVSS
high polyreactivity
QVQLVESGGGLVQAGGSLRLSCAASGRTFRANAMEWYRQAPGKEREFVAVISLSGGGTYADSVKGRFTISRDNAKNTVYLQMNSLKPEDTAVYYCNRVPRRREYFHSNYLALFDYWGQGTQVTVSW
low polyreactivity
QVQLVESGGGLVQAGGSLRLSCAASGSTIVGYTMGWYRQAPGKERELVAAISRGGGSTYYADSVKGRFTISRDNAKNTVYLQMNSLKPEDTAVYYCNAYTYNRYYWGQGTQVTVSS
high polyreactivity
QVQLVESGGGLVQAGGSLRLSCAASGSIFWYYAMGWSRQAPGKERELVASISSSGGSTYYADSVKGRFTISRDNAKNTVYLQMNSLKPEDTAVYYCAVRSPYRLSRWRVGYWGQGTQVTVSS
high polyreactivity
QFQIVESGGGLVQAGGSLRISCAASVFIFARYAIGWYRQAHGKEREFVAAISSSGGSTYYADSVKGRFTISRDNAKNTVYLQMNSLKPADTAVYYCNVRLRIRSGYWGQGSQVTVSS
high polyreactivity

Now consider the entry below.
I have this sequence here, QVQLVESGGGLVQAGGSLRLSCAASGRIFNYYAMGWYRQAPGKERELVATISRNGGRTYYADSVKGRFTISRDNAKNTVYLQMNSLKPEDTAVYYCATDGLYRYDYWGQGTQVTVSS , and I need its recorded polyreactivity (PSR sort gate).
high polyreactivity
